Where do the numbers come from? From patent US20140005163A1.

- Assayed Target: PI3K delta (Homo sapiens)
- Construct: for the full-length p110-d subunit are generated and fused by overlapping PCR; p85(iSH2) fusion partner (see partner chain) (N); His tag (C); Tn5 (Trichoplusia ni) or TiniPro insect cells
- Sequence (O00329 with tags, fused parts or gaps limits assumed): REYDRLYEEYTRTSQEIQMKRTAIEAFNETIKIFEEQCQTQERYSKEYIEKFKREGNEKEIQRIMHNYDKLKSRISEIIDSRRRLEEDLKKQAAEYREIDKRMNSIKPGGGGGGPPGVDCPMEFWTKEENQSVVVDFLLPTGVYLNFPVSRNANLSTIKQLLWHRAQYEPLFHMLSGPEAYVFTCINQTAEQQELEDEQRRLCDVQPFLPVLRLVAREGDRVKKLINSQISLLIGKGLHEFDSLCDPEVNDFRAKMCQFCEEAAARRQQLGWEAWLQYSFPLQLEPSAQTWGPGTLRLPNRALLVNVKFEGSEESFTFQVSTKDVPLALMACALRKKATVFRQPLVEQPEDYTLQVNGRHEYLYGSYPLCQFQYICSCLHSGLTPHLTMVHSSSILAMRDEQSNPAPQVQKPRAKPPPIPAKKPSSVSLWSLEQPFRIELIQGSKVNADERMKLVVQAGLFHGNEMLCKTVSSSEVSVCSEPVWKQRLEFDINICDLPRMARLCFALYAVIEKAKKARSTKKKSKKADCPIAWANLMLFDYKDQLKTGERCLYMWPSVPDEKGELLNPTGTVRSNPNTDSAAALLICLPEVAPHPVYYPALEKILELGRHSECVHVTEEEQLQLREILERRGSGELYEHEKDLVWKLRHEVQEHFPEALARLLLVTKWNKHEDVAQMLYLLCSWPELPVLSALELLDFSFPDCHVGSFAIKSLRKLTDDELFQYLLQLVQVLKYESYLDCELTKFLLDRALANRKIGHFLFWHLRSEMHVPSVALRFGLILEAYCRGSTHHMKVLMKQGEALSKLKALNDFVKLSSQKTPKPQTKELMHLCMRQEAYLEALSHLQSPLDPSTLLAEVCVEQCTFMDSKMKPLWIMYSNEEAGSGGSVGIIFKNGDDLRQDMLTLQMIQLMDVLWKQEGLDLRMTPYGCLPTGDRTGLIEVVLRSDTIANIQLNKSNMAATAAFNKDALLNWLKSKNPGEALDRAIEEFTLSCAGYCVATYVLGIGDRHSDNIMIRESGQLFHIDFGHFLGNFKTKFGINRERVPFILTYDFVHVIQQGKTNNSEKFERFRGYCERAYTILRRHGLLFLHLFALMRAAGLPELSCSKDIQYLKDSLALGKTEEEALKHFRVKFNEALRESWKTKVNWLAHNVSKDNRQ
- Assay Overview: PI3K delta kinase assay (Kinase-Glo luminescence)
List of pIC50 values.
Friendly reminder that pIC50 comes from taking -log10 of the concentration in mol/L.

Q: Entry under review: `Cc1nn(C)cc1-n1c(=O)n(C)c2cnc3ccc(-c4cccc(OC(C)C)c4)cc3c21` . Reported pIC50?
Ans: 7.11

Q: Entry under review: `CNc1cc(-c2ccc3ncc4c(c3c2)n(-c2cn(C)nc2C)c(=O)n4C)cnc1C` . Reported pIC50?
Ans: 8.30

Q: Entry under review: `CCOc1ncc(-c2ccc3ncc4c(c3c2)n(-c2cn(C)nc2C)c(=O)n4C)cc1N(C)C(C)=O` . Reported pIC50?
Ans: 7.70

Q: Entry under review: `Cc1cc(-n2c(=O)n(C)c3cnc4ccc(-c5cnc(N)c(C(F)(F)F)c5)cc4c32)n(C)n1` . Reported pIC50?
Ans: 7.49

Q: Entry under review: `Cc1nn(C)cc1-n1c(=O)n(C)c2cnc3ccc(-c4cnc(F)c(N(C)C)c4)cc3c21` . Reported pIC50?
Ans: 8.30

Q: Entry under review: `CCNc1cc(-c2ccc3ncc4c(c3c2)n(-c2cn(C(C)C)nc2C)c(=O)n4C)cnc1CO` . Reported pIC50?
Ans: 8.00

Q: Entry under review: `CCn1cc(-n2c(=O)n(C)c3cnc4ccc(-c5cnc(N)c(COC)c5)cc4c32)c(C)n1` . Reported pIC50?
Ans: 7.96

Q: Entry under review: `CCOCc1cc(-c2ccc3ncc4c(c3c2)n(-c2cn(CC)nc2C)c(=O)n4C)cnc1N` . Reported pIC50?
Ans: 8.15

Q: Entry under review: `COc1cncc(-c2ccc3ncc4c(c3c2)n(-c2cn(C)nc2C)c(=O)n4C)c1` . Reported pIC50?
Ans: 7.51
